meta.source: ChEMBL document CHEMBL1961873

The entries below come with measured inhibition values attached.
- TARGET ENTITY: Tyrosine-protein kinase Fes/Fps (Homo sapiens);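 note: mean inhibition of FES from the GSK PKIS kinase inhibitor screening set, assayed by Nanosyn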
- MEASUREMENT SETUP: at 1 µM
Express the result in % but write the number alone.

Below, 5 compounds whose answers are already recorded.
- Fc1cccc(COc2ccc(Nc3ncnc4sc(-c5cccs5)cc34)cc2Cl)c1: 0.01
- Nc1ncnc2occ(-c3ccc(NC(=O)Nc4cccc(C(F)(F)F)c4)cc3)c12: 4.91
- O=C1NC(=O)C(c2ccccc2Cl)=C1Nc1cccc(O)c1: 2.5
- O=C1NC(=O)C(c2ccc(Cl)cc2)=C1Nc1ccc(Cl)c(C(=O)O)c1: -3
- Cc1ccc(C(=O)NC2CCCCC2)cc1-c1ccc(C(=O)NCC2CC2)cc1: 2.29

Entry COc1cc2c(cc1Nc1nc(N3CCc4ccccc43)c3cc[nH]c3n1)N(C(=O)CN(C)C)CC2 ; inhibition = 62.3

Entry NC(=O)c1cccc(Nc2nccc(Nc3cccc4[nH]ncc34)n2)c1 ; inhibition = 10.9

Entry N#Cc1c(NC(=O)c2cccc3ccccc23)sc2c1CCCC2 ; inhibition = 2.36

Entry CCn1c(-c2nonc2N)nc2c(N3CCCC3)nccc21 ; inhibition = -3.78

Entry CS(=O)(=O)Nc1ccc(N/C=C2\C(=O)Nc3ccccc32)cc1 ; inhibition = -1.95

---

The entries below come with measured inhibition values attached.
- Tested on: Receptor-type tyrosine-protein kinase FLT3 (Homo sapiens), P36888 [D835Y]
- MEASUREMENT SETUP: at 1 µM
Express the result in % but write the number alone.

Below, 3 compounds whose answers are already recorded.
* O=C1NC(=O)C(c2cccc(Cl)c2)=C1Nc1ccc(O)c(Cl)c1 | 3.58
* Cc1ccc(NC(=O)c2ccnc(N3CCCC3)c2)cc1-c1ccc(C(=O)NCC2CC2)cc1 | 1.51
* CCN1CCC(CC(=O)Nc2n[nH]c3nc(-c4cccs4)c(Br)cc23)CC1 | 10.7

Entry O=C(Nc1n[nH]c2nc(-c3ccco3)c(Br)cc12)C1CC1 ; inhibition = 5.36

Entry CCc1cccc(NC(=O)Nc2ccc(Oc3ccc4nc(NC(=O)OC)[nH]c4c3)cc2)c1 ; inhibition = 6.29

Entry CNC(=O)c1cncc(/C=C/c2c(Cl)cccc2Cl)c1 ; inhibition = -3.57

Entry CCn1c(-c2nonc2N)nc2c(C#CC(C)(C)O)nc(OC[C@@H](N)c3ccccc3)cc21 ; inhibition = 2.58

Entry Cc1nnc(-c2ccc(C)c(-c3ccc(C(=O)Nc4cccc(C#N)c4)cc3)c2)o1 ; inhibition = 1.89

Entry CN(C)c1cc2c(Nc3ccc4nc(Cc5ccccc5)[nH]c4c3)ncnc2cn1 ; inhibition = -1.97

Entry [O-][S+]1CCN(Cc2ccc(-c3ccc4ncnc(Nc5ccc(OCc6ccccc6)c(F)c5)c4c3)o2)CC1 ; inhibition = 1.92

Entry Cc1nn(C)c2cc(N(C)c3ccnc(Nc4cccc(S(N)(=O)=O)c4)n3)ccc12 ; inhibition = 11.9

Entry NCc1ccc(-c2nc(-c3ccc(Cl)c(O)c3)c(-c3ccncc3)[nH]2)cc1 ; inhibition = 1.57

Entry COc1ccc(-c2coc3ncnc(N)c23)cc1 ; inhibition = -3.79

Entry COc1cccc(-n2ncc3c(N/N=C/c4cccc(F)c4)ncnc32)c1 ; inhibition = 14.1

Entry COc1cc2ncn(-c3cc(O[C@H](C)c4ccccc4Cl)c(C(N)=O)s3)c2cc1OC ; inhibition = 39.6
